FYI, the data here is from PubChem BioAssay.

experiment: basal MM1S mitochondrial membrane potential changes, profiling panel, cell-based, JC-1 fluorescence, 24 h, 100 nL compound (AID 1170); details: higher = more signal; note: test concentration not given here
Class (by z-score) -- Low: < -1; Medium: ≥ -1 and < -0.2; High: ≥ -0.2

>  <MOLECULE>
NC(=O)N1C(=O)C2C(C1=O)C1C=C(CCCO)C2C(c2cccs2)N1Cc1cc2c(cc1Br)OCO2 (stereo not given)

>  <ANSWER LABEL>
Medium

$$$$

Exercise: Category lookup for the molecule `O=C1c2ccccc2[C@@]2(Cc3ccccc3N(C3CC3)C2=O)[C@H](c2ccc(CO)cc2)N1C1CCCCC1`
Key: High
